Attribution: the supplement of paper PMC6555819

System: RARb homodimer (NR concentration 270 nM)
assay.remarks: PBM binding z-score (relative to random genomic background probes); higher = stronger binding; sequences stand for … in GC…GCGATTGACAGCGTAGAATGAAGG
reported.endpoint: PBM binding z-score
Give the value as a plain number.

Input: Request the reported PBM binding z-score associated with AGAACGAGGGCTCGCTGAGTTGATAGCAGAGTAG
Output: -1.22

Input: Request the reported PBM binding z-score associated with CGTCAAAGTTCAACTAAGGTAACGTCAAGCACGC
Output: 4.4

Input: Request the reported PBM binding z-score associated with GATACAGGGTCAGCTAGATGCCAGAGTATGGAAA
Output: 2.84

Input: Request the reported PBM binding z-score associated with CCTCACGGGTCACTCCAGGTTATAGCATCGGAGT
Output: 3.09

Input: Request the reported PBM binding z-score associated with TCTGCTAGGTCAGTTGGTCAGCTGACGAGCTGCC
Output: 2.33

Input: Request the reported PBM binding z-score associated with CGCCCAAGGTCATAGGAGGTCAGTGAAGACAGAT
Output: 5.6

Input: Request the reported PBM binding z-score associated with CGAACTAGATCAGAACAGGACAGTGAAGGATGAT
Output: 0.0748

Input: Request the reported PBM binding z-score associated with ATCTCTAGGTAAAAGTTCAGCGAATCCCGAGGAT
Output: 2.76

Input: Request the reported PBM binding z-score associated with CTCGAAAGGTCGGGTGAGGTGAGTATACGGATAA
Output: 3.12

Input: Request the reported PBM binding z-score associated with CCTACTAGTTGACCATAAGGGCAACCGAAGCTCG
Output: 1.92

Input: Request the reported PBM binding z-score associated with CGTCCGAGGTCAGCAGGTCAGTGAAAGCGACGTG
Output: 4.89

Input: Request the reported PBM binding z-score associated with ATATGCAGGTTAGCTGGGGTCATTCAGACTAGGC
Output: 3.72

Input: Request the reported PBM binding z-score associated with CCAACTAGGTCACGAAAGGTCAAAGTCGAATGAC
Output: 6.02

Input: Request the reported PBM binding z-score associated with CTACCAAGGTAAACAAGGTCGTTGATTACTATTC
Output: 1.18

Input: Request the reported PBM binding z-score associated with ATCGAAAGGTGGTGAGGTGAGTATACAGAAAGGC
Output: 1.13

Input: Request the reported PBM binding z-score associated with CAAACTAGGTCATGAGGTCAAAGTCCGCTTCCCG
Output: 5.22

Input: Request the reported PBM binding z-score associated with ATATGTAGGTTAAGGGTCATTGAGGTTGGTTCGC
Output: 4.17

Input: Request the reported PBM binding z-score associated with CGAAATAGGTCAAGGACAGTGAATCTCCGCACGC
Output: 3.69

Input: Request the reported PBM binding z-score associated with CCTTACGGGTCACGAGGTTTTAGCACGACGAGCG
Output: 3.71

Input: Request the reported PBM binding z-score associated with GCATATAGGTAACACAAGGTGAAAGTCCGATTGT
Output: 1.15

Input: Request the reported PBM binding z-score associated with TTTCGGAGGACACGAAGGTCAGAGCTTTCCAGAG
Output: 3.81

Input: Request the reported PBM binding z-score associated with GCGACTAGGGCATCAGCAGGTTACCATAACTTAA
Output: 0.836

Input: Request the reported PBM binding z-score associated with CCGTCTGGGGCAAAGGTTACCATACTCAGTACGA
Output: 2.21

Input: Request the reported PBM binding z-score associated with AGAACGAGGTCAATGAGTTGATAGCACGGGTGGC
Output: 3.94

Input: Request the reported PBM binding z-score associated with GCTATTGGTTGAAAGGGCAACCGAATGATTCTCG
Output: 1.94

Input: Request the reported PBM binding z-score associated with ATCTCTAGGTAACCACGTTCAGTGAATGCCGAAC
Output: 0.366

Input: Request the reported PBM binding z-score associated with CAAACTAGGTCAACAGGTCAAAGTCCGCTTCCCG
Output: 4.94

Input: Request the reported PBM binding z-score associated with CCAGACAGGTGAAAGGTAACACAGTCTGGTACGC
Output: 1.1

Input: Request the reported PBM binding z-score associated with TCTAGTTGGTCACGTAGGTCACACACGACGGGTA
Output: 3.66

Input: Request the reported PBM binding z-score associated with AATATTAGTTGACTTAGGGCAACCGATACGACGC
Output: 0.918

Input: Request the reported PBM binding z-score associated with TCTTGTACATCAAAGGTTAAGAAAGCCGAAGCCT
Output: 1.84

Input: Request the reported PBM binding z-score associated with TGTTGTAGATCAATAGAGGTTAAGAAAGTGCGCT
Output: 1.3

Input: Request the reported PBM binding z-score associated with GCTAGCAGGCCATTTGGGTCATTCAATGACGGGC
Output: 1.64

Input: Request the reported PBM binding z-score associated with ACTATTAGTTAACTTAGGGCAACCGATACGACGC
Output: 0.839

Input: Request the reported PBM binding z-score associated with AGAATGAGGTTACCAAAGAACAGGGAAACGCTTG
Output: 0.612

Input: Request the reported PBM binding z-score associated with ATATGTAGGTTAGCAGGGGTCATTCAGACTAGGC
Output: 4.08

Input: Request the reported PBM binding z-score associated with CCTTACGGGTCATTCCAGGTTATAGCATCGGAGT
Output: 3.03

Input: Request the reported PBM binding z-score associated with CCGTCTGGGGCAAGGTTACCATAACGCACAGCCA
Output: 1.05

Input: Request the reported PBM binding z-score associated with CAAACTAGGTCACGAAAGCTCAAAGTCGAATGAC
Output: 3.1

Input: Request the reported PBM binding z-score associated with CGTCAAAGTTCACGGTAACGTAACAGAAAGCAGC
Output: 4.26

Input: Request the reported PBM binding z-score associated with CGTCCAAGGTCTATGCTAGGTCAGTGAAAGCATT
Output: 2.43

Input: Request the reported PBM binding z-score associated with CCTCACGGGTCACTGACAGGTTATAGCATTTGGA
Output: 3.33

Input: Request the reported PBM binding z-score associated with TCATACAGGTAATACAGGTGAAAGTCGGCATCTA
Output: 0.84

Input: Request the reported PBM binding z-score associated with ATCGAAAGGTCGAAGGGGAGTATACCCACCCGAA
Output: 2.2

Input: Request the reported PBM binding z-score associated with GATACATGGTCAAGGCCAGAGTACGCGTATTGAT
Output: 0.856

Input: Request the reported PBM binding z-score associated with CGCACTAGGTCAAGGACAGTGAATCTCCGCACGC
Output: 3.34

Input: Request the reported PBM binding z-score associated with TTAACAAGGTGAGCTGAGGTCGTTGATCCAACTC
Output: 1.42

Input: Request the reported PBM binding z-score associated with CGAACTAGGTCATCCAGGATAGTGAATACATTGA
Output: 3.03

Input: Request the reported PBM binding z-score associated with TTACCAAGGTGAAGGTGGTTGATCCCTCTGTAGA
Output: 0.653

Input: Request the reported PBM binding z-score associated with CTCGAAAGGTCGTGCTCAGGTGAGTGTACCAAAC
Output: 3.22

Input: Request the reported PBM binding z-score associated with ATCGCTAGGTAAAGATAGTTCAGTGAATGCAAAT
Output: 0.559
